procedure.details: Inhibition of c-Src tyrosine kinase
pIC50: −log10 of the molar value.
Label Satisfied when pIC50 is at or above 7; otherwise label Not satisfied.

Known results for compounds:
CN(C)CCOC(=O)CCCc1ccc(Nc2ncc3cc(-c4c(Cl)cccc4Cl)c(=O)n(C)c3n2)cc1 :: Satisfied
Cc1cccc(Cl)c1-c1cc2cnc(Nc3ccccc3)nc2n(C)c1=O :: Satisfied
Cn1c(=O)c(-c2c(Cl)cccc2Cl)cc2cnc(Nc3ccccc3)nc21 :: Satisfied

## Task Item `CC(=O)Nc1ccc(Cl)c(-c2cc3cnc(Nc4ccccc4)nc3n(C)c2=O)c1Cl` with pIC50 of 7 or above?
## Result Not satisfied

## Task Repeat with `Cc1c(-c2ccccc2)c(=O)n(C)c2nc(Nc3ccccc3)ncc12`
## Result Not satisfied

## Task Repeat with `CCN(CC)CCOc1ccc(Nc2ncc3c(C)c(-c4ccccc4Cl)c(=O)n(C)c3n2)cc1`
## Result Not satisfied

## Task Repeat with `Cn1c(=O)c(-c2c(Cl)cccc2Cl)cc2cnc(Nc3ccc(OCC(N)=O)cc3)nc21`
## Result Satisfied

## Task Repeat with `Cn1c(=O)c(-c2c(F)cccc2Cl)cc2cnc(Nc3ccccc3)nc21`
## Result Satisfied

## Task Repeat with `Cn1c(=O)c(-c2c(Cl)cccc2Cl)cc2cnc(Nc3ccc(CCCCC(N)=O)cc3)nc21`
## Result Satisfied

## Task Repeat with `COc1cc(C)c(-c2cc3cnc(Nc4ccccc4)nc3n(C)c2=O)c(C)c1`
## Result Not satisfied

## Task Repeat with `Cn1c(=O)c(-c2c(Cl)c(O)cc(O)c2Cl)cc2cnc(Nc3ccccc3)nc21`
## Result Satisfied

## Task Repeat with `Cn1c(=O)c(-c2c(Cl)cc(Cl)cc2Cl)cc2cnc(Nc3ccccc3)nc21`
## Result Not satisfied

## Task Repeat with `Cn1c(=O)c(-c2c(Cl)ccc(C(=O)O)c2Cl)cc2cnc(Nc3ccccc3)nc21`
## Result Not satisfied

## Task Repeat with `COc1cc(OC)c(C)c(-c2cc3cnc(Nc4ccccc4)nc3n(C)c2=O)c1C`
## Result Not satisfied

All values here come from ChEMBL document CHEMBL1143513.
